Hello, the source for this data is the supplement of paper PMC10567573, in case you need it.

protein stability index values by entry
B1: PDLIM7 (parent)
chain: AAGGVPGGGSNNGKTPVCHQCHKV

variants of: B1; test: protein stability index of a GFP-peptide fusion (GPS, HEK-293T) (PSI 1-6); higher = more stable; settings: c terminus: a fixed tail appended;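 note: lentivirally expressed fusions sorted by FACS into six bins by GFP to DsRed ratio, PSI derived from sequencing read proportions per bin multiplied by bin number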
property: protein stability index

INSERT INTO assay_data (variant_descriptor, value_observed) VALUES
  ('G7V', 3.53),
  ('A2D', 3.81),
  ('G8Q', 3.87),
  ('S10P', 2.9),
  ('A1C', 3.35),
  ('G9M', 3.22),
  ('A1N', 3.03),
  ('G7H', 3.68),
  ('G7K', 4.09),
  ('A1H', 4.13),
  ('A2G', 3.43),
  ('G9T', 2.79),
  ('A1Y', 1.95),
  ('G7E', 4.47),
  ('A2I', 3.49),
  ('G3H', 4.17),
  ('S10L', 2.47),
  ('P6L', 3.23),
  ('G7L', 3.47),
  ('A1I', 3.52),
  ('G9S', 2.65),
  ('G8A', 3.58),
  ('G3T', 3.3),
  ('G8Y', 2.96),
  ('G3N', 3.14),
  ('G3F', 3.31),
  ('G8E', 5.24),
  ('G7Q', 3.93),
  ('G9K', 3.64),
  ('P6Y', 3.73),
  ('A2Y', 3.72),
  ('P6K', 4.05),
  ('G7C', 3.49),
  ('P6V', 3.04),
  ('A2S', 3.84),
  ('A1S', 2.44),
  ('G3D', 4.08),
  ('A2T', 3.08),
  ('G9C', 2.13),
  ('S10C', 2.19),
  ('A2C', 2.73),
  ('G8F', 2.43),
  ('A1L', 3.76),
  ('G7W', 2.26),
  ('A2H', 3.63),
  ('G7S', 3.95);
